Assay: Stability study (influencing factors, HPLC purity)
Type: physicochemical
Details: HPLC, Day 0
property.label: Purity Day 0

The molecule listed as CC(C)(C(=O)[O-])c1ccc(C(=O)CCCN2CCC(OC(c3ccccc3)c3ccccc3)CC2)cc1.[K+] [Example 1] shows Purity Day 0 equal to 98.42%

The molecule listed as CC(C)(C(=O)O)c1ccc(C(=O)CCCN2CCC(OC(c3ccccc3)c3ccccc3)CC2)cc1 [Comparative Example 2] shows Purity Day 0 equal to 97.78%

The molecule listed as CC(C)(C(=O)O)c1ccc(C(=O)CCCN2CCC(OC(c3ccccc3)c3ccccc3)CC2)cc1 [Comparative Example 2′, carebastine] shows Purity Day 0 equal to 99.65%

The molecule listed as CC(C)(C(=O)O)c1ccc(C(=O)CCCN2CCC(OC(c3ccccc3)c3ccccc3)CC2)cc1.Cc1ccc(S(=O)(=O)O)cc1 [Example 5, carebastine p-toluenesulfonate] shows Purity Day 0 equal to 97.90%

---

Assay: Stability study (influencing factors, HPLC purity)
Assay type: physicochemical
Conditions: HPLC, 5000Lux, 12 days
Method: Carebastine (Comparative Example 2, Comparative Example 2′), carebastine potassium salt (Example 1), and carebastine p-toluenesulfonate (Example 3, Example 5). […] Detection method: An appropriate amount of each of the samples was weighed accurately, and is dissolved in acetonitrile and quantitatively diluted to a solution containing about 0.08 mg per 1 ml. […] Each sample solution was injected into the liquid chromatograph and the chromatogram was recorded.
property.label: Purity Day 12 under light
I'd appreciate it if you included the unit after the number.

The molecule listed as "CC(C)(C(=O)[O-])c1ccc(C(=O)CCCN2CCC(OC(c3ccccc3)c3ccccc3)CC2)cc1.[K+]" shows Purity Day 12 under light equal to 97.48%

The molecule listed as CC(C)(C(=O)O)c1ccc(C(=O)CCCN2CCC(OC(c3ccccc3)c3ccccc3)CC2)cc1 [Comparative Example 2′, carebastine] shows Purity Day 12 under light equal to 88.11%

The molecule listed as CC(C)(C(=O)O)c1ccc(C(=O)CCCN2CCC(OC(c3ccccc3)c3ccccc3)CC2)cc1.Cc1ccc(S(=O)(=O)O)cc1 [Example 5, carebastine p-toluenesulfonate] shows Purity Day 12 under light equal to 97.80%

The molecule listed as CC(C)(C(=O)O)c1ccc(C(=O)CCCN2CCC(OC(c3ccccc3)c3ccccc3)CC2)cc1 [Comparative Example 2] shows Purity Day 12 under light equal to 87.28%

---

Assay: Stability study (influencing factors, HPLC purity)
Type: physicochemical
Details: HPLC, 60° C., 12 days
Protocol: Carebastine (Comparative Example 2, Comparative Example 2′), carebastine potassium salt (Example 1), and carebastine p-toluenesulfonate (Example 3, Example 5). […] Detection method: An appropriate amount of each of the samples was weighed accurately, and is dissolved in acetonitrile and quantitatively diluted to a solution containing about 0.08 mg per 1 ml. […] Each sample solution was injected into the liquid chromatograph and the chromatogram was recorded.
Task for the reader: assign each of the following compounds its reported Purity Day 12 under high temperature.
Give the value in % but do not write % after it.

The compound listed as CC(C)(C(=O)O)c1ccc(C(=O)CCCN2CCC(OC(c3ccccc3)c3ccccc3)CC2)cc1 [Comparative Example 2′, carebastine] shows Purity Day 12 under high temperature equal to 99.45

The compound listed as CC(C)(C(=O)O)c1ccc(C(=O)CCCN2CCC(OC(c3ccccc3)c3ccccc3)CC2)cc1.Cc1ccc(S(=O)(=O)O)cc1 [Example 5, carebastine p-toluenesulfonate] shows Purity Day 12 under high temperature equal to 97.90

The compound listed as CC(C)(C(=O)O)c1ccc(C(=O)CCCN2CCC(OC(c3ccccc3)c3ccccc3)CC2)cc1 [Comparative Example 2] shows Purity Day 12 under high temperature equal to 97.22

The compound listed as "CC(C)(C(=O)[O-])c1ccc(C(=O)CCCN2CCC(OC(c3ccccc3)c3ccccc3)CC2)cc1.[K+]" shows Purity Day 12 under high temperature equal to 98.23
